# TARGET DESC: human GLP-1 receptor (human, UniProt P43220 24-463)
# METHOD: cell-based or functional assay
Below is a list of entries, each paired with its recorded cAMP EC50 (1.0% HSA) value.
MEASURED PROPERTY: cAMP EC50 (1.0% HSA) (nM)

{"BINDER": "YXEGTXTSDXSIXLDXKAQXEXIXXLIEGGKSSGAPPPS (Aib2, αMeF(2F)6, 4Pal10, αMeL13, Orn16, Aib20, 3FPhe22, D-Glu24, αMeY25; acylated K17, K31 (groups as in name); C-terminal amide)", "READOUT UNIT": "nM", "REPORTED VALUE": 27}
{"BINDER": "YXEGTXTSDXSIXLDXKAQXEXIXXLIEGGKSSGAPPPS (Aib2, αMeF(2F)6, 4Pal10, αMeL13, Orn16, Aib20, 2ClPhe22, D-Glu24, αMeY25; acylated K17, K31 (groups as in name); C-terminal amide)", "READOUT UNIT": "nM", "REPORTED VALUE": 36.9}
{"BINDER": "YXEGTXTSDXSIXLDXKAQXEFIXXLIEGGKSSGAPPPX (Aib2, αMeF(2F)6, 4Pal10, αMeL13, Orn16, Aib20, D-Glu24, αMeY25, Orn39; acylated K17, K31 (groups as in name); C-terminal amide)", "READOUT UNIT": "nM", "REPORTED VALUE": 70.5}
{"BINDER": "YXEGTXTSDXXIXLDXKAQXEFIXXLIEGGKSSGAPPPS (Aib2, αMeF(2F)6, 4Pal10, αMeS11, αMeL13, Orn16, Aib20, D-Glu24, αMeY25; acylated K17, K31 (groups as in name); C-terminal amide)", "READOUT UNIT": "nM", "REPORTED VALUE": 40.3}
{"BINDER": "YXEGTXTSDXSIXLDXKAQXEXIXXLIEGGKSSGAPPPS (Aib2, αMeF(2F)6, 4Pal10, αMeL13, Orn16, Aib20, 2Nal22, D-Glu24, αMeY25; acylated K17, K31 (groups as in name); C-terminal amide)", "READOUT UNIT": "nM", "REPORTED VALUE": 20}
{"BINDER": "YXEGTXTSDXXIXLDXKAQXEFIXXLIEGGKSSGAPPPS (Aib2, αMeF(2F)6, 4Pal10, Aib11, αMeL13, Orn16, Aib20, D-Glu24, αMeY25; acylated K17, K31 (groups as in name); C-terminal amide)", "READOUT UNIT": "nM", "REPORTED VALUE": 27.7}
